- target_under_test: recombinant sEH (Homo sapiens)
- Sequence (P34913 whole entry): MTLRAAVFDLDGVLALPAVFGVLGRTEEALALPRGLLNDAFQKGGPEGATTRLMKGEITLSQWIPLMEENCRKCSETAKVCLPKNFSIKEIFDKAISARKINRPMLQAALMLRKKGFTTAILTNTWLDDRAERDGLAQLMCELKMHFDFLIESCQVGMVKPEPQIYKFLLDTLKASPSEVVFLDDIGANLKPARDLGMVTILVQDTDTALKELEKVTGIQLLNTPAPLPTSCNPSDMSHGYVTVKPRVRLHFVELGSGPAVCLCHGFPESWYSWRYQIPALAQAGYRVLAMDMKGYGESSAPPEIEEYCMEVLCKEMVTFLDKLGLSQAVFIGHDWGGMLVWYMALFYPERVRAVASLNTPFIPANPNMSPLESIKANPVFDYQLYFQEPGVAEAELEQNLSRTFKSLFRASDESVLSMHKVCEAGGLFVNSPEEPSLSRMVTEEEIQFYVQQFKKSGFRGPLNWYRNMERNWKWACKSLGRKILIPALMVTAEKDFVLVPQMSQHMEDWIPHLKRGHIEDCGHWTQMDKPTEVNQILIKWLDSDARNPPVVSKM
- procedure_summary: biochemical screening assay for inhibition of soluble epoxide hydrolase (fluorometric, Phome substrate)
quantity_measured: IC50 (µM)

A selection of reference data follows.
[[record]]
compound = "O=C(NC1CCCCC1)N[C@H]1CO[C@H]2[C@@H]1OC[C@@H]2Oc1cccc(Br)c1 [Example 139]"
target_under_test = "recombinant sEH (Homo sapiens)"
quantity_measured = "IC50"
endpoint_result = 0.002

[[record]]
compound = "Cc1ncccc1O[C@H]1CO[C@H]2[C@@H]1OC[C@@H]2NC(=O)NC(C)c1c(C)nn(C)c1C (some centres unmarked) [Example 234]"
target_under_test = "recombinant sEH (Homo sapiens)"
quantity_measured = "IC50"
endpoint_result = 0.172

[[record]]
compound = "COc1cc(NC(=O)N[C@H]2CO[C@H]3[C@H](CCc4ccccc4)CO[C@@H]32)cc(OC)c1 [Example 352]"
target_under_test = "recombinant sEH (Homo sapiens)"
quantity_measured = "IC50"
endpoint_result = 0.149


a = Cc1ncccc1O[C@H]1CO[C@H]2[C@@H]1OC[C@@H]2NC(=O)NC1CCCOC1 (some centres unmarked) [Example 221]
b = O=C(Nc1ccc2c(c1)OCO2)NC1COC2C(CCc3ccccc3)COC12 (centres unmarked) [Example 348]
c = COc1cc(NC(=O)NC2COC3C(C=Cc4ccccc4)COC23)cc(OC)c1 (centres unmarked) [Example 321]
d = O=C(Nc1ccc(Cl)c(Cl)c1)NC1COC2C(C#Cc3ccccc3)COC12 (centres unmarked) [Example 290]
Output the entries ranked by IC50 from maximum down to minimum. A complete answer lists every label in the requested sequence.
b, a, c, d
